tested on: Hepatitis C virus; assay: Antiviral activity against HCV genotype 1a infected in human HuH7 cells after 3 days by luciferase reporter assay; type: functional, cell-based, Hepacivirus hominis, subtype 1a; settings: Hepatitis C virus, subtype 1a, Huh-7, 72 h; read-out: EC50
pEC50: −log10 of the molar value.
In this section we review reported pEC50 values for a set of molecules.

{"molecule smiles": "CNC(=O)c1c(-c2ccc(F)cc2)oc2ccc(-c3cccc(C(=O)O)c3)cc12", "pEC50": "< 4.70"}
{"molecule smiles": "CNC(=O)c1c(-c2ccc(F)cc2)oc2ccc(OC(C)C)cc12", "pEC50": "< 4.96"}
{"molecule smiles": "CNC(=O)c1c(-c2ccc(F)cc2)oc2ccc(-c3ccc(C(=O)O)cc3)cc12", "pEC50": "< 4.70"}
